assay: Hemolytic activity in mouse erythrocytes at 256 uM preincubated for 1 to 6 hr with 10% mouse serum and measured after 1 hr by absorbance based analysis; format: toxicity, cell-based, Erythrocyte; conditions: time 1-7 hrs, read-out: Activity
measured.parameter: hemolysis at 1 h, 256 µM

For H-WWWWKRRRR-NH2 the substance record lists hemolysis at 1 h, 256 µM as < 10%

----------
experiment: Cytotoxicity against HEK293T cells assessed as cell death measured after 1 hr by resazurin dye based analysis; type: toxicity, HEK-293T; details: human, HEK293T cells
Where a SMILES comes first, the peptide text is derived from it. Side-chain parts run from the residue outwards.
measured.parameter: CC50 at 1 h

N=C(N)NCCC[C@H](NC(=O)[C@H](CCCNC(=N)N)NC(=O)[C@H](CCCNC(=N)N)NC(=O)[C@H](CCCNC(=N)N)NC(=O)[C@H](CCCCNC(=O)[C@H](Cc1c[nH]c2ccccc12)NC(=O)[C@@H](N)Cc1c[nH]c2ccccc12)NC(=O)[C@H](Cc1c[nH]c2ccccc12)NC(=O)[C@@H](N)Cc1c[nH]c2ccccc12)C(N)=O (H-WWK([Trp-Trp])RRRR-NH2) :: > 128 µM

# ---- query compound ----
For N=C(N)NCCC[C@H](N)C(=O)NCCCC[C@H](NC(=O)[C@@H](N)CCCNC(=N)N)C(=O)N[C@@H](Cc1c[nH]c2ccccc12)C(=O)N[C@@H](Cc1c[nH]c2ccccc12)C(=O)N[C@@H](Cc1c[nH]c2ccccc12)C(N)=O (H-RK(Arg)WWW-NH2) the compound record lists CC50 at 1 h as > 128 µM

----------
assay: Therapeutic index, ratio of MHC10 for hemolytic activity in mouse erythrocytes preincubated with 10% mouse serum for 6 hrs to MIC for Staphylococcus aureus ATCC 25923 preincubated with 10% mouse serum for 6 hrs; assay type: toxicity, cell-based; conditions: mouse erythrocytes, read-out: TI
measured.parameter: selectivity ratio
Note: the reply should be a number with no unit written.

For H-WWWWKRRRR-NH2 the substance record lists selectivity ratio as 0.13

----------
test: Therapeutic index, ratio of MHC10 for hemolytic activity in mouse erythrocytes preincubated with 10% mouse serum for 6 hrs to MIC for Escherichia coli ATCC 25922 preincubated with 10% mouse serum for 6 hrs; format: toxicity, cell-based; settings: mouse erythrocytes, read-out: TI
measured.parameter: selectivity ratio

For H-WWWWKRRRR-NH2 the substance record lists selectivity ratio as 0.13

----------
test system: Erythrocyte; assay: Hemolytic activity in mouse erythrocytes assessed as 10% hemolysis incubated for 1 hr by absorbance based analysis; format: toxicity, cell-based
Where a SMILES comes first, the peptide text is derived from it. Side-chain parts run from the residue outwards.
measured.parameter: MHC10 (µM)
Entry rule: numbers only, all in µM.

For N=C(N)NCCC[C@H](NC(=O)[C@H](CCCNC(=N)N)NC(=O)[C@H](CCCNC(=N)N)NC(=O)[C@H](CCCNC(=N)N)NC(=O)[C@H](CCCNC(=N)N)NC(=O)[C@H](CCCCNC(=O)[C@H](Cc1c[nH]c2ccccc12)NC(=O)[C@H](Cc1c[nH]c2ccccc12)NC(=O)[C@@H](N)Cc1c[nH]c2ccccc12)NC(=O)[C@H](Cc1c[nH]c2ccccc12)NC(=O)[C@H](Cc1c[nH]c2ccccc12)NC(=O)[C@@H](N)Cc1c[nH]c2ccccc12)C(N)=O (H-WWWK([Trp-Trp-Trp])RRRRR-NH2) the molecule record lists MHC10 as 22.73

----------
system: Erythrocyte; test: Hemolytic activity in mouse erythrocytes assessed as 10% hemolysis incubated for 1 hr by absorbance based analysis; assay type: toxicity, cell-based
Where a SMILES comes first, the peptide text is derived from it. Side-chain parts run from the residue outwards.
measured.parameter: MHC10

N=C(N)NCCC[C@H](N)C(=O)NCCCC[C@H](NC(=O)[C@@H](N)CCCNC(=N)N)C(=O)N[C@@H](Cc1c[nH]c2ccccc12)C(N)=O (H-Arg-Lys(Arg)-Trp-NH2) :: > 256 µM
N=C(N)NCCC[C@H](NC(=O)[C@H](CCCNC(=N)N)NC(=O)[C@H](CCCNC(=N)N)NC(=O)[C@H](CCCNC(=N)N)NC(=O)[C@H](CCCNC(=N)N)NC(=O)[C@H](CCCNC(=N)N)NC(=O)[C@H](CCCCNC(=O)[C@H](Cc1c[nH]c2ccccc12)NC(=O)[C@H](Cc1c[nH]c2ccccc12)NC(=O)[C@@H](N)Cc1c[nH]c2ccccc12)NC(=O)[C@H](Cc1c[nH]c2ccccc12)NC(=O)[C@H](Cc1c[nH]c2ccccc12)NC(=O)[C@@H](N)Cc1c[nH]c2ccccc12)C(N)=O (H-WWWK([Trp-Trp-Trp])RRRRRR-NH2) :: 17.61 µM

# ---- query molecule ----
For N=C(N)NCCC[C@H](NC(=O)[C@@H](N)CCCNC(=N)N)C(=O)NCCCC[C@H](NC(=O)[C@H](CCCNC(=N)N)NC(=O)[C@@H](N)CCCNC(=N)N)C(=O)N[C@@H](Cc1c[nH]c2ccccc12)C(=O)N[C@@H](Cc1c[nH]c2ccccc12)C(=O)N[C@@H](Cc1c[nH]c2ccccc12)C(N)=O (H-RRK([Arg-Arg])WWW-NH2) the molecule record lists MHC10 as > 256 µM

----------
This section presents molecules with their documented MHC10 values.
system: Erythrocyte; experiment: Hemolytic activity in mouse erythrocytes assessed as 10% hemolysis incubated for 1 hr by absorbance based analysis; format: toxicity, cell-based
Where a SMILES comes first, the peptide text is derived from it. Side-chain parts run from the residue outwards.

MHC10 of N=C(N)NCCC[C@H](NC(=O)[C@H](CCCNC(=N)N)NC(=O)[C@H](CCCNC(=N)N)NC(=O)[C@H](CCCNC(=N)N)NC(=O)[C@H](CCCNC(=N)N)NC(=O)[C@H](CCCCNC(=O)[C@H](Cc1c[nH]c2ccccc12)NC(=O)[C@@H](N)Cc1c[nH]c2ccccc12)NC(=O)[C@H](Cc1c[nH]c2ccccc12)NC(=O)[C@@H](N)Cc1c[nH]c2ccccc12)C(N)=O (H-WWK([Trp-Trp])RRRRR-NH2) , assay on Erythrocyte, is > 256 µM

MHC10 of N=C(N)NCCC[C@H](N)C(=O)NCCCC[C@H](NC(=O)[C@@H](N)CCCNC(=N)N)C(=O)N[C@@H](Cc1c[nH]c2ccccc12)C(=O)N[C@@H](Cc1c[nH]c2ccccc12)C(=O)N[C@@H](Cc1c[nH]c2ccccc12)C(N)=O (H-RK(Arg)WWW-NH2) , assay on Erythrocyte, is > 256 µM

----------
assay: Stability in mouse serum assessed as half life at 10 mM measured upto 24 hrs by RP-HPLC analysis; type: ADME, cell-free
Where a SMILES comes first, the peptide text is derived from it. Side-chain parts run from the residue outwards.
measured.parameter: half-life at 10000 µM (h)
Entry rule: numbers only, all in h.

Below, each entry is followed by its recorded half-life at 10000 µM result.
N=C(N)NCCC[C@H](NC(=O)[C@H](CCCNC(=N)N)NC(=O)[C@H](CCCNC(=N)N)NC(=O)[C@@H](N)CCCNC(=N)N)C(=O)N[C@@H](CCCCN)C(=O)N[C@@H](Cc1c[nH]c2ccccc12)C(=O)N[C@@H](Cc1c[nH]c2ccccc12)C(=O)N[C@@H](Cc1c[nH]c2ccccc12)C(=O)N[C@@H](Cc1c[nH]c2ccccc12)C(N)=O :: 4.31
N=C(N)NCCC[C@H](NC(=O)[C@@H](N)CCCNC(=N)N)C(=O)NCCCC[C@H](NC(=O)[C@H](CCCNC(=N)N)NC(=O)[C@@H](N)CCCNC(=N)N)C(=O)N[C@@H](Cc1c[nH]c2ccccc12)C(=O)N[C@@H](Cc1c[nH]c2ccccc12)C(=O)N[C@@H](Cc1c[nH]c2ccccc12)C(=O)N[C@@H](Cc1c[nH]c2ccccc12)C(N)=O (H-RRK([Arg-Arg])WWWW-NH2) :: 7.38

# ---- query molecule ----
For N=C(N)NCCC[C@H](NC(=O)[C@H](CCCNC(=N)N)NC(=O)[C@H](CCCNC(=N)N)NC(=O)[C@H](CCCNC(=N)N)NC(=O)[C@H](CCCCNC(=O)[C@H](Cc1c[nH]c2ccccc12)NC(=O)[C@@H](N)Cc1c[nH]c2ccccc12)NC(=O)[C@H](Cc1c[nH]c2ccccc12)NC(=O)[C@@H](N)Cc1c[nH]c2ccccc12)C(N)=O (H-WWK([Trp-Trp])RRRR-NH2) the molecule record lists half-life at 10000 µM as 0.54

----------
assay: Cytotoxicity against HEK293T cells assessed as cell death measured after 1 hr by resazurin dye based analysis; type: toxicity, HEK-293T; details: human, HEK293T cells
Where a SMILES comes first, the peptide text is derived from it. Side-chain parts run from the residue outwards.
measured.parameter: CC50 at 1 h (µM)
Entry rule: numbers only, all in µM.

N=C(N)NCCC[C@H](NC(=O)[C@H](CCCNC(=N)N)NC(=O)[C@@H](N)CCCNC(=N)N)C(=O)NCCCC[C@H](NC(=O)[C@H](CCCNC(=N)N)NC(=O)[C@H](CCCNC(=N)N)NC(=O)[C@@H](N)CCCNC(=N)N)C(=O)N[C@@H](Cc1c[nH]c2ccccc12)C(=O)N[C@@H](Cc1c[nH]c2ccccc12)C(=O)N[C@@H](Cc1c[nH]c2ccccc12)C(=O)N[C@@H](Cc1c[nH]c2ccccc12)C(=O)N[C@@H](Cc1c[nH]c2ccccc12)C(=O)N[C@@H](Cc1c[nH]c2ccccc12)C(N)=O (H-RRRK([Arg-Arg-Arg])WWWWWW-NH2) :: 34

# ---- query molecule ----
For N=C(N)NCCC[C@H](NC(=O)[C@H](CCCNC(=N)N)NC(=O)[C@@H](N)CCCNC(=N)N)C(=O)NCCCC[C@H](NC(=O)[C@H](CCCNC(=N)N)NC(=O)[C@H](CCCNC(=N)N)NC(=O)[C@@H](N)CCCNC(=N)N)C(=O)N[C@@H](Cc1c[nH]c2ccccc12)C(=O)N[C@@H](Cc1c[nH]c2ccccc12)C(=O)N[C@@H](Cc1c[nH]c2ccccc12)C(=O)N[C@@H](Cc1c[nH]c2ccccc12)C(=O)N[C@@H](Cc1c[nH]c2ccccc12)C(N)=O the molecule record lists CC50 at 1 h as 41.4
